Cited source for all entries: PubChem BioAssay (NCI)

Test system: ACHN renal
measurement protocol: NCI tumour cell line growth inhibition, 48 h
result type: TGI

molecule	TGI
CCCCSC1=N/C(=C\c2ccc(N(C)C)cc2)C(Cl)=N1	> 100 µM
COc1ccc2c(c1)C(=O)[C@@](Nc1ccc(C=O)cc1)(OC)[C@@](OC)(c1ccc([N+](=O)[O-])cc1)O2	> 10 µM
Cc1ccc(-n2c3c(c4c(CN)c(O)ccc42)CCc2ccccc2C3=O)cc1	31.1 µM
C=CCN(c1cc(OC)c2c(c1[N+](=O)[O-])C(C)(SC)C(=O)N2)S(C)(=O)=O (stereo not given)	> 100 µM
C=CC(C)(C)n1cc(C2=C(O)C(=O)C(c3c(CC=C(C)C)[nH]c4ccccc34)=C(O)C2=O)c2ccccc21	4.32 µM

State its TGI on ACHN renal: "CC(=O)OCCCCn1cnc2c(Cl)nc(Nc3ccccc3)nc21"
> 100 µM

State its TGI on ACHN renal: COC(=O)C1(Cc2ccc(C)cc2)Cc2c(C)cccc2C1=O (stereo not given)
76.9 µM
